B1: Max-interacting protein 1, residues 70 to 120; numbered along this chain, P50539 (parent)
chain: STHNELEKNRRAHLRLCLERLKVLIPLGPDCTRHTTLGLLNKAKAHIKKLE

Variants of: B1
assayDetails: abundance fitness (aPCA) (normalised: wild type 0, dead -1); higher = more abundant; growth selection in yeast, the domain comes from the species named
conditionContext: Homo sapiens
valueType: abundance fitness
Answer with a bare number; do not write a unit.

Example variants with recorded abundance fitness:
# abundance fitness of L50R = -0.459

# abundance fitness of H13K = 0.26

# abundance fitness of P26E = -0.138

# abundance fitness of L37N = -0.292

# abundance fitness of R33W = -0.075

New cases:
# abundance fitness of G28Y = 0.133

# abundance fitness of C31H = 0.308

# abundance fitness of N41W = -0.83

# abundance fitness of T36D = -0.705

# abundance fitness of T32Y = -0.174

# abundance fitness of L37R = 0.253
